Procedure details: Inhibition of CRM1 interaction with HIV1 HA-tagged Rev in HeLa cells assessed as inhibition of Rev nuclear export by indirect fluorescent antibody technique
Type: cell-based
Recorded endpoint: IC50 (µM)

CC(O)CCCCCCCC(=O)O (configuration not stated)    20.8

I = CCCCC/C=C\C=C\CCCCCCCCC(=O)O
II = CCCCC/C=C\C=C\C(O)CCCCCCCC(=O)O (configuration not stated)
Request: # compare IC50 for I vs II ; return the one with the smaller value Field: selected label. Fill in the label of the entry you choose.
Response: II
(II: 7.2 µM, I: 15 µM)
